ASSAY TARGET: T1, human IL-11 (human, UniProt P20809 22-199)
T1 sequence: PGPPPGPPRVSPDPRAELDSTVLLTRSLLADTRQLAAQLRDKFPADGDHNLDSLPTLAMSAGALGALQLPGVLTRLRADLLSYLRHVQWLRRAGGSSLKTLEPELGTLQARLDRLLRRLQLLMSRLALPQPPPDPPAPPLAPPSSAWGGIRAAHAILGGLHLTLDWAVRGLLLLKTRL
RUN DESCRIPTION: cell-based or functional assay
READOUT KIND: RGA Efficacy (%)
Output spec: scalar in %, unitless text.

IN: Would you kindly share the measured RGA Efficacy (%) for TPP-29402 (antibody, human IgG1, V domains shown) VH: EVQLLESGGGLVQPGGSLRLSCAASGFTFSSYGGHWVRQAPGKGLEWVALISYDGSYKYYADSVKGRFTISRDNSKNTLYLQMNSLRAEDTAVYYCAAGVPDYWGQGTLVTVSS VL: QSVLTQPPSASGTPGQRVTISCSGSSSNIGSGLDVHWYQQLPGTAPKLLIYSNEERPSGVPDRFSGSKSGTSASLAISGLRSEDEADYYCAAWDSSLYGPVFGGGTKLTVL ?
OUT: 80.7

This collection of values is drawn from patent US20240317847A1.
